# assaySystem: T1, human glucose-dependent insulinotropic polypeptide (GIP) receptor (human, UniProt P48546 22-466)
# T1 sequence (looked up): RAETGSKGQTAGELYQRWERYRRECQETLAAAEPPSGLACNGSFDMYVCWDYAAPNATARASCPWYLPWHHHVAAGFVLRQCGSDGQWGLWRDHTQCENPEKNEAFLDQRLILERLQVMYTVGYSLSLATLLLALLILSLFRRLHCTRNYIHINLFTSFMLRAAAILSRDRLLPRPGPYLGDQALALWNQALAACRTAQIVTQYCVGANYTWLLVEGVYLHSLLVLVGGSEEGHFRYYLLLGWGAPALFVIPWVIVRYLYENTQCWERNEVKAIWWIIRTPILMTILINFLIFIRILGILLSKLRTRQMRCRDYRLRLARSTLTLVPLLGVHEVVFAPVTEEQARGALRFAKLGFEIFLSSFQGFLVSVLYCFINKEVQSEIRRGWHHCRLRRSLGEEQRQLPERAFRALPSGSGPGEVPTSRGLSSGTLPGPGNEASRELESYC
# assayProtocol: cell-based or functional assay
binders and their reported cAMP Emax
Report as a plain number; the unit % is understood.

Some entries whose results are on file:
binder	endpoint	observedResult
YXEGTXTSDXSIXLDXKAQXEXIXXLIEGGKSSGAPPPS (Aib2, αMeF6, 4Pal10, αMeL13, Orn16, K17(Z), Aib20, αMeF22, D-Glu24, αMeF25, K31(Z), C-terminal NH2; Z = AEEA2-(γ-Glu)-CO-(CH2)10-CH3) [Example 174]	cAMP Emax	92.2
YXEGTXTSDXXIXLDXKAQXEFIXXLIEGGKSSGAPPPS (Aib2, αMeF(2F)6, 4Pal10, Ac5c11, αMeL13, Orn16, K17(Z), Aib20, D-Glu24, αMeY25, K31(Z), C-terminal NH2; Z = AEEA2-(γ-Glu)-CO-(CH2)12-CO2H) [Example 211]	cAMP Emax	91.6

Look up cAMP Emax for this binder: YXEGTXTSDXSIXLDXIAQXEFIKXLIEGGPSSGAPPPSK (Aib2, αMeF(2F)6, 4Pal10, αMeL13, Orn16, Aib20, K24(Z), αMeY25, K40(Z), C-terminal NH2; Z = AEEA2-CO-(CH2)12-CO2H) [Example 194]
93.1

Look up cAMP Emax for this binder: YXEGTXTSDVSIXLDXKAQXEFIKXLIEGGPSSGAPPPS (Aib2, αMeF6, αMeL13, Orn16, K17(Z), Aib20, K24(Z), αMeY25, C-terminal NH2; Z = AEEA2-(γ-Glu)-CO-(CH2)12-CO2H) [Example 181]
94.6

Look up cAMP Emax for this binder: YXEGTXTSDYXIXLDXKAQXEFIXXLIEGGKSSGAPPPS (Aib2, αMeF(2F)6, Dap11, αMeL13, Orn16, K17(Z), Aib20, D-Glu24, αMeY25, K31(Z), C-terminal NH2; Z = AEEA2-(γ-Glu)-CO-(CH2)12-CO2H) [Example 200]
96.3

Look up cAMP Emax for this binder: YXEGTXTSDXSIXLDXKAQXEFIEXLIEGGKSSGAPPPS (Aib2, αMeF(2F)6, 4Pal10, αMeL13, Orn16, K17(Z), Aib20, αMeF25, K31(Z), C-terminal NH2; Z = AEEA2-(γ-Glu)-CO-(CH2)12-CO2H) [Example 159]
95.3
